Where these numbers come from: patent US20240382482A1

Target: human activated kallikrein enzyme (Homo sapiens)
Assay: Inhibition of human activated kallikrein enzyme, fluorogenic peptide substrate assay (500 pM enzyme format)
Conditions: 500 pM activated kallikrein, 300 μM PFR-AMC substrate, 30 min preincubation, 10 min reaction, room temperature; read-out: Primary Dose Response Assay: Average EC50
pEC50: −log10 of the molar value.
ENDPOINT: pEC50

[
  {
    "COMPOUND": "O=C(Cc1ncn2ccc(Cl)cc12)Nc1cc(NCc2cn3cc(C4CC4)cc(CO)c3n2)ncn1 [Example 44]",
    "ENDPOINT": "pEC50",
    "OBSERVED RESULT": "≥ 8.30"
  },
  {
    "COMPOUND": "COc1ccnc(CC(=O)Nc2cc(NCc3cn4cc(C5CC5)cc(N5CCCC5=O)c4n3)ccn2)c1F [Example 24]",
    "ENDPOINT": "pEC50",
    "OBSERVED RESULT": "7.30 to 8.30"
  },
  {
    "COMPOUND": "Cc1cc(N)nc(C)c1CNc1cc(OCc2cn3cc(C4CC4)cc(C#N)c3n2)ncn1 [Example 112]",
    "ENDPOINT": "pEC50",
    "OBSERVED RESULT": "≥ 8.30"
  },
  {
    "COMPOUND": "COc1ccc(-n2cnnn2)c(CNc2cc(C(O)c3cn4cc(C5CC5)ccc4n3)ncn2)c1F (stereo not shown) [Example 63]",
    "ENDPOINT": "pEC50",
    "OBSERVED RESULT": "7.30 to 8.30"
  },
  {
    "COMPOUND": "O=C(Cc1ncn2ccc(Cl)cc12)Nc1cc(NCc2cn3c(F)c(C4CC4)ccc3n2)ncn1 [Example 46]",
    "ENDPOINT": "pEC50",
    "OBSERVED RESULT": "≥ 8.30"
  },
  {
    "COMPOUND": "CCOC(=O)C(C)(C)Cc1nc(NCc2c(C)cc(C(=N)N)cc2C)cc(OCc2cn3cc(C4CC4)ccc3n2)n1 [Example 93]",
    "ENDPOINT": "pEC50",
    "OBSERVED RESULT": "≥ 8.30"
  },
  {
    "COMPOUND": "O=C(Cc1ncn2ccc(Cl)cc12)Nc1cc(NCc2cn3cc(C4CC4)cc(CN4CCOCC4)c3n2)ncn1 [Example 48]",
    "ENDPOINT": "pEC50",
    "OBSERVED RESULT": "≥ 8.30"
  }
]

---

Target: human activated kallikrein enzyme (Homo sapiens, UniProt P03952)
Sequence (P03952 391-638 limits assumed): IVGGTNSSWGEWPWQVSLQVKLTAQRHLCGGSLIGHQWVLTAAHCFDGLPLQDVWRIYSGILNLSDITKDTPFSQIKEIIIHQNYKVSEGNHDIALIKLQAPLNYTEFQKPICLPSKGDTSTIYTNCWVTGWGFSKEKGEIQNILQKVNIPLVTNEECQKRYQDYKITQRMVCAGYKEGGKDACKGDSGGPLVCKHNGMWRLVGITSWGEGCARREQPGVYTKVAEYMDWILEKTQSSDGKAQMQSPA
Sequence (P03952 20-390 partner limits assumed): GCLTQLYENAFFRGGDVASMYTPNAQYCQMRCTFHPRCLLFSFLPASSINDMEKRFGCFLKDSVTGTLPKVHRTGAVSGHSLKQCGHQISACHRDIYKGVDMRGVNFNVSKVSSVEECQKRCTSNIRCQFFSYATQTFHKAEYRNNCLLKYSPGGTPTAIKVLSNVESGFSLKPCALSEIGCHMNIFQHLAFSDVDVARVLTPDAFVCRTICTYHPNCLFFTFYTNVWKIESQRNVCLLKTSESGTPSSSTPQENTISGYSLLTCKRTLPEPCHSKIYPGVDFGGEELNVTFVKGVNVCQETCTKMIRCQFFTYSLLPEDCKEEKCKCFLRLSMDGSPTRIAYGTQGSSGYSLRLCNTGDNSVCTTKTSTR
Test: Inhibition of human activated kallikrein enzyme, fluorogenic peptide substrate assay (500 pM enzyme format)
Details: 500 pM activated kallikrein, 300 μM PFR-AMC substrate, 30 min preincubation, 10 min reaction, room temperature; read-out: Primary Dose Response Assay: Average EC50
pEC50: −log10 of the molar value. Counter-ions that a name gives are not always drawn.
Some molecules, each annotated with its measured pEC50.

[
  {
    "MOLECULE": "O=C(Cc1ncn2ccc(Cl)cc12)Nc1cc(OCc2cn3cc(C4CC4)ccc3n2)ccn1",
    "pEC50": "7.30 to 8.30"
  },
  {
    "MOLECULE": "Cc1cc(C(=N)N)cc(C)c1CNc1cc(OCc2cn3cc(C4CC4)cc(CCC(=O)O)c3n2)ncn1",
    "pEC50": "≥ 8.30"
  },
  {
    "MOLECULE": "O=C(Nc1cc(NCc2cn3cc(C4CC4)ccc3n2)ccn1)C1CCc2ccc(Cl)cc2C1 (stereo not shown)",
    "pEC50": "5.05 to 6.30"
  },
  {
    "MOLECULE": "O=C(Cc1ncn2ccc(Cl)cc12)Nc1cc(NCc2cn3cc(C4CC4)ccc3n2)ncn1",
    "pEC50": "≥ 8.30"
  },
  {
    "MOLECULE": "COCCOc1nc(NCc2cn3cc(C4CC4)ccc3n2)cc(NC(=O)Cc2ncn3ccc(Cl)cc23)n1",
    "pEC50": "7.30 to 8.30"
  },
  {
    "MOLECULE": "N#Cc1cc(C2CC2)cn2cc(CNc3ccnc(NC(=O)Cc4ncn5ccc(Cl)cc45)c3)nc12",
    "pEC50": "≥ 8.30"
  },
  {
    "MOLECULE": "N#Cc1cc(C2CC2)cn2cc(CNc3cc(NC(=O)Cc4cc(Cl)ccc4-n4cnnn4)ncn3)nc12",
    "pEC50": "≥ 8.30"
  },
  {
    "MOLECULE": "Cc1cc(C(=N)N)cc(C)c1CNc1cc(OCc2cn3cc(Cl)ccc3n2)ncn1 [Example 69, formic acid salt]",
    "pEC50": "≥ 8.30"
  },
  {
    "MOLECULE": "C[C@H](c1cccc(Cl)c1)[C@@H](C)C(=O)Nc1cc(NCc2cn3cc(C4CC4)ccc3n2)ncn1",
    "pEC50": "5.05 to 6.30"
  },
  {
    "MOLECULE": "Cc1cc(C(=N)N)cc(C)c1CNc1cc(OCc2cn3cc(C4CC4)ccc3n2)ncn1 [Example 72, formic acid salt]",
    "pEC50": "≥ 8.30"
  },
  {
    "MOLECULE": "O=c1c(NCc2cn3cc(C4CC4)ccc3n2)c(NCc2ncn3ccc(Cl)cc23)c1=O",
    "pEC50": "7.30 to 8.30"
  },
  {
    "MOLECULE": "O=C(Cc1ncn2ccc(Cl)cc12)Nc1cc(NCc2cn3cc(C4CC4)ccc3n2)cnn1",
    "pEC50": "≥ 8.30"
  },
  {
    "MOLECULE": "O=C(CCc1cccc(Cl)c1)Nc1cc(NCc2cn3cc(C4CC4)ccc3n2)ncn1",
    "pEC50": "5.05 to 6.30"
  },
  {
    "MOLECULE": "O=C(NCc1ncn2ccc(Cl)cc12)c1cnnc(NCc2cn3cc(C4CC4)ccc3n2)c1",
    "pEC50": "7.30 to 8.30"
  },
  {
    "MOLECULE": "N#Cc1ccc(Cl)cc1CC(=O)Nc1cc(NCc2cn3cc(C4CC4)ccc3n2)ncn1",
    "pEC50": "5.05 to 6.30"
  },
  {
    "MOLECULE": "CC(Nc1cc(NC(=O)Cc2ncn3ccc(Cl)cc23)ncn1)c1cn2cc(C3CC3)ccc2n1 (stereo not shown)",
    "pEC50": "7.30 to 8.30"
  }
]

---

Reported EC50 values are given for each entry in this list.
Target: human activated kallikrein enzyme (Homo sapiens, UniProt P03952)
Test: Inhibition of human activated kallikrein enzyme, fluorogenic peptide substrate assay (500 pM enzyme format)
Type: biochemical
Details: 500 pM activated kallikrein, 300 μM PFR-AMC substrate, 30 min preincubation, 10 min reaction, room temperature; read-out: Primary Dose Response Assay: Average EC50
Experimental: Compounds were evaluated for inhibition of the human activated kallikrein enzyme in two formats of an assay employing a fluorogenic peptide substrate. […] After initiation with substrate, reactions were incubated for 10 min at room temperature and fluorescence emission at 460 nm from 380 nm excitation measured with a microplate reader. […]
ENDPOINT: EC50

[
  {
    "MOLECULE": "O=C(CC1(c2cccc(Cl)c2)CC1)Nc1cc(NCc2cn3cc(C4CC4)ccc3n2)ccn1",
    "OBSERVED RESULT": "500 to 9000 nM"
  },
  {
    "MOLECULE": "Cc1cc(N)nc(C)c1CNc1cc(OCc2cn3cc(C4CC4)ccc3n2)ccn1",
    "OBSERVED RESULT": "≤ 5 nM"
  },
  {
    "MOLECULE": "Cc1cc(N)nc(C)c1CNc1cc(OCc2cn3cc(C4CC4)ccc3n2)ncn1",
    "OBSERVED RESULT": "≤ 5 nM"
  },
  {
    "MOLECULE": "CC(C(=O)Nc1cc(C(F)(F)c2cn3cc(C4CC4)ccc3n2)ncn1)c1ncn2ccc(Cl)cc12 (stereo not shown)",
    "OBSERVED RESULT": "500 to 9000 nM"
  }
]

---

Measured IC90 values are reported for all entries that follow.
Target: plasma kallikrein (Homo sapiens, UniProt P03952)
Construct: added to sodium citrate collected human or rat plasma in a 96-well microplate; from tissue
Sequence (P03952 391-638 limits assumed): as the sequence (P03952 391-638 limits assumed) above
Sequence (P03952 20-390 partner limits assumed): as the sequence (P03952 20-390 partner limits assumed) above
Test: Neat human plasma assay (fluorogenic peptide), contact pathway-activated plasma
Type: biochemical
Conditions: sodium citrate human plasma (78% final), 10 nM human FXIIa, 100 μM PFR-AMC, room temperature

[
  {
    "INPUT SMILES": "Cc1cc(N)nc(C)c1CNc1cc(OCc2cn3cc(C4CC4)ccc3n2)ncn1",
    "IC90": "5 to 25 µM"
  },
  {
    "INPUT SMILES": "CN1C(=O)CN(c2cc(C3CC3)cn3cc(CNc4cc(NC(=O)Cc5ncn6ncc(Cl)cc56)ncn4)nc23)C1=O",
    "IC90": "0.5 to 5 µM"
  },
  {
    "INPUT SMILES": "N#Cc1cc(C2CC2)cn2cc(CNc3ccnc(NC(=O)Cc4ncn5ccc(Cl)cc45)c3)nc12",
    "IC90": "0.5 to 5 µM"
  },
  {
    "INPUT SMILES": "O=C(Cc1ncn2ccc(Cl)cc12)Nc1cc(NCc2cn3cc(C4CC4)cc(N4CCCC4=O)c3n2)ncn1",
    "IC90": "0.5 to 5 µM"
  },
  {
    "INPUT SMILES": "Cc1cc(N)nc(C)c1CNc1cc(OCc2cn3cc(C4CC4)cc(C#N)c3n2)ncn1",
    "IC90": "0.5 to 5 µM"
  },
  {
    "INPUT SMILES": "CN1CCN(c2cc(C3CC3)cn3cc(CNc4cc(NC(=O)Cc5ncn6ccc(Cl)cc56)ncn4)nc23)CC1",
    "IC90": "≤ 0.5 µM"
  },
  {
    "INPUT SMILES": "COc1ccc(-n2cnnn2)c(CNc2cc(NCc3cn4cc(C5CC5)ccc4n3)ncn2)c1F",
    "IC90": "0.5 to 5 µM"
  },
  {
    "INPUT SMILES": "O=C(Cc1ncn2ccc(Cl)cc12)Nc1cc(NCc2cn3cc(C4CC4)ccc3n2)ncn1",
    "IC90": "0.5 to 5 µM"
  },
  {
    "INPUT SMILES": "Cc1cc(N)nc(C)c1CNc1cc(OCc2cn3cc(C4CC4)ccc3n2)ccn1",
    "IC90": "5 to 25 µM"
  },
  {
    "INPUT SMILES": "O=C(Cc1n[nH]c2ccc(Cl)cc12)Nc1cc(NCc2cn3cc(C4CC4)ccc3n2)ccn1",
    "IC90": "5 to 25 µM"
  },
  {
    "INPUT SMILES": "O=C(Cc1ncn2ccc(Cl)cc12)Nc1cc(NCc2cn3cc(C4CC4)cc(CO)c3n2)ccn1",
    "IC90": "≤ 0.5 µM"
  },
  {
    "INPUT SMILES": "O=C(Cc1ncn2ccc(Cl)cc12)Nc1cc(NCc2cn3cc(C4CC4)ccc3n2)cnn1",
    "IC90": "0.5 to 5 µM"
  },
  {
    "INPUT SMILES": "O=C(Cc1ncn2ccc(Cl)cc12)Nc1cc(NCc2cn3cc(C4CC4)cc(C4(O)COC4)c3n2)ncn1",
    "IC90": "≤ 0.5 µM"
  },
  {
    "INPUT SMILES": "Cc1cc(N)nc(C)c1CNc1cc(OCc2cn3cc(C4CC4)cc(CO)c3n2)ncn1",
    "IC90": "5 to 25 µM"
  },
  {
    "INPUT SMILES": "Cc1cc(N)nc(C)c1CNc1cc(N2C[C@@H](O)C[C@@H]2c2cn3cc(C4CC4)ccc3n2)ncn1",
    "IC90": "≤ 0.5 µM"
  },
  {
    "INPUT SMILES": "Cc1cc(N)nc(C)c1CNc1cc(OCc2cn3cc(C4CC4)cc(C4(F)COC4)c3n2)ncn1",
    "IC90": "≤ 0.5 µM"
  }
]
